# target under test: Albumin (Bos taurus)
# measurement protocol: compounds binding labelled BSA control protein – biochemical, small-molecule microarray, Alexa647 label, 635/667 nm fluorescence, artefact control for SMM control protein annotation, profiling panel (AID 1118);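 note: score merges 667 nm emission intensity and signal-to-noise per printed compound spot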
# run conditions: BSA-A647 binding, fluorescence 635 nm, higher = more signal
// F strictly below 0.5 in composite z-score; T otherwise

Would you please look over these solved cases?
| molecule | target under test | class |
| --- | --- | --- |
| COCC(=C=CC[C@H](O)c1ccc(OCCO)cc1)CCO | Albumin (Bos taurus) | F |
| COC(=O)[C@@H]1N=C(c2ccc(OCCCO)cc2)O[C@@H]1C | Albumin (Bos taurus) | F |
| COCCCNC(=O)[C@@]1(CCC(=O)OC(C)(C)C)N=C(c2ccc(OCCCO)cc2)O[C@H]1c1ccccc1N=[N+]=[N-] | Albumin (Bos taurus) | T |

Prompt: Entry C=CCNC(=O)[C@H]1[C@@H]2C(=O)O[C@@H](c3ccccc3)[C@@H](c3ccccc3)N2[C@@H](c2ccccc2OCCO)[C@]12C(=O)N(C(=O)OCCOC)c1ccc(C#CC3(O)CCCCCC3)cc12 : is its composite z-score no less than 0.5?
Completion: T

* * *

# measurement protocol: change in splice reporter luminescence, either direction, cell-based, HEK293, spliceosome inhibition project, primary screen (AID 1101);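 note: HEK293 cells carrying a splicing-competent luciferase reporter gene; test concentration not given here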
# run conditions: HEK293 splicing luciferase reporter, 24 h, higher = more signal, called active from +8 up or from −8 down
recorded metric: z-score
Please reply with the number alone, leaving off any unit.

Use these answered entries as a reference point.
| molecule | z-score |
| --- | --- |
| C=CCNC(=O)[C@@H]1[C@H]2C(=O)O[C@H](c3ccccc3)[C@H](c3ccccc3)N2[C@H](c2ccc(O)cc2)[C@@]12C(=O)N(C(=O)OCCOC)c1ccc(C#CC3=CCCCC3)cc12 | -1.19 |
| CS(=O)(=O)CCOC(=O)C1=CC(c2ccc(CO)cc2)=CC(C2CC2)N(Cc2sc3ccccc3c2Cl)C=C1C(=O)OCCS(C)(=O)=O (stereo unspecified) | 2.53 |
| C=CCN1Cc2ccccc2[C@@H]2OC(c3ccc(OCCCO)cc3)=N[C@]2(CC=C)C1=O | -1.25 |
| CCCCCCc1nc(Cc2cc(OC)c(OC)c(OC)c2)cc2c1[Si](C(C)C)(C(C)C)OC2 | -0.393 |

Prompt: Name the recorded z-score for O=C(c1ccccc1)N1C(=O)[C@]2(Cc3ccccc31)N=C(c1ccc(OCCCO)cc1)O[C@@H]2c1ccccc1 .
Completion: -0.936

Prompt: Name the recorded z-score for CC(C)C[C@@H]1NC(=O)[C@@H]2C[C@H](C(=O)NCCCCCCN)[C@H](c3cccc(OCCO)c3)N2C1=O .
Completion: 0.138

Prompt: Name the recorded z-score for COC(=O)C1=CC(CCCO)=CC(c2cccs2)N(Cc2cccc(OC(F)(F)F)c2)C=C1C(=O)OC (stereo unspecified) .
Completion: 0.955

* * *

# measurement protocol: probe aCHRDL2 binding to arrayed compounds – biochemical, biotinylated probe, 635/667 nm fluorescence, primary screen (AID 1100)
# run conditions: small-molecule microarray, higher = more signal
// condition not met strictly below 0.4 in composite z-score; condition met otherwise

Would you please look over these solved cases?
| compound | class |
| --- | --- |
| O=C1CS(=O)(=O)C(c2cccc([N+](=O)[O-])c2)N1c1ccccc1 (stereo not drawn) | condition not met |
| COC(=O)[C@]1(CCS(=O)(=O)c2ccccc2)N=C(c2ccc(OCCCO)cc2)O[C@@H]1c1ccccc1N=[N+]=[N-] | condition met |
| C=CCNC(=O)[C@@H]1[C@H]2C(=O)O[C@H](c3ccccc3)[C@H](c3ccccc3)N2[C@H](c2ccccc2OCCO)[C@@]12C(=O)N(C(=O)OCCOC)c1ccc(C#CC3(O)CCCCCC3)cc12 | condition not met |
| NC(=O)[C@@]1(Cc2ccccc2)COC(c2ccc(OCCCO)cc2)=N1 | condition met |
| CCCCCCc1nc(Cc2cc(OC)c(OC)c(OC)c2)cc2c1[Si](C(C)C)(C(C)C)OC2 | condition not met |
| CO[C@H]1O[C@H](CO)[C@@H](OC(=O)Nc2ccc3c(c2)OCO3)[C@H](OC(=O)Nc2ccc3c(c2)OCO3)[C@@H]1OC(=O)Nc1ccc2c(c1)OCO2 | condition not met |

Prompt: Entry C=C(/C(=C/C[C@H](OC(=O)c1ccncc1)c1ccc(CO)o1)c1cnc2ccccc2c1)C(C)C : is its composite z-score no less than 0.4?
Completion: condition not met

Prompt: Entry CCOC(=O)C[C@H]1[C@H](OC(=O)c2ccc(C(=O)c3ccccc3)cc2)[C@@H](NC(=O)C2CCCCC2)c2cc(OCCCO)ccc2N1C(=O)c1ccc2ccccc2n1 : is its composite z-score no less than 0.4?
Completion: condition not met

Prompt: Entry COCCOC(=O)N1C(=O)[C@@]2(c3cc(C#CC4=CCCCC4)ccc31)[C@H](C(=O)Nc1nc3ccccc3s1)[C@H]1C(=O)O[C@H](c3ccccc3)[C@H](c3ccccc3)N1[C@@H]2c1ccc(O)cc1 : is its composite z-score no less than 0.4?
Completion: condition not met

Prompt: Entry O=C1C2C=CC(C(O)c3cccc(O)c3)N(Nc3ccc([N+](=O)[O-])cc3)C2C(=O)N1c1ccccc1 (stereo not drawn) : is its composite z-score no less than 0.4?
Completion: condition met

Prompt: Entry COC(=O)[C@@]1(Cc2ccc(OC)cc2)[C@H]2c3cc(C(=O)N4CCCC4)n(CCc4c[nH]c5ccc(O)cc45)c3C[C@H]2CN1C(=O)c1ccccc1 : is its composite z-score no less than 0.4?
Completion: condition met
